Source listed as ChEMBL document CHEMBL1126264.

System: Streptococcus pyogenes
Assay: Compound was tested for antimicrobial activity against […] pyogenes 308 A
Type: functional
MIC listing for selected compounds.
The figure you give is taken to be in µg/mL; do not add the unit.

Look up MIC for this compound: CO[C@@H]1C[C@@H](C[C@H]2CC[C@H](C)[C@H]([C@@H](C)CO)O2)OC2(O[C@](C)([C@H]3CC[C@@](C)([C@@H]4O[C@@H]([C@H]5O[C@](COCOCC[Si](C)(C)C)(OCOCC[Si](C)(C)C)[C@H](C)C[C@@H]5C)C[C@@H]4C)O3)C[C@H]2C)[C@@H]1C (some centres undefined)
50

Now consider the entry below.
Look up MIC for this compound: CO[C@@H]1C[C@@H](C[C@H]2CC[C@H](C)[C@H]([C@@H](C)CO)O2)OC2(O[C@](C)([C@H]3CC[C@@](C)([C@@H]4O[C@@H]([C@H]5O[C@@](O)(CO)[C@H](C)C[C@@H]5C)C[C@@H]4C)O3)C[C@H]2C)[C@@H]1C (some centres undefined)
1.56

###

Test system: Staphylococcus aureus
Test: Compound was tested for antimicrobial activity against Staphylococcus aureus 503
recorded endpoint: MIC (µg/mL)
The figure you give is taken to be in µg/mL; do not add the unit.

Look up MIC for this compound: CO[C@@H]1C[C@@H](C[C@H]2CC[C@H](C)[C@H]([C@@H](C)C(=O)O)O2)OC2(O[C@](C)([C@H]3CC[C@@](C)([C@@H]4O[C@@H]([C@H]5O[C@@](O)(COC(=O)C(C)C)[C@H](C)C[C@@H]5C)C[C@@H]4C)O3)C[C@H]2C)[C@@H]1C (some centres not stated)
0.19

Look up MIC for this compound: CO[C@@H]1C[C@@H](C[C@H]2CC[C@H](C)[C@H]([C@@H](C)C(=O)O)O2)OC2(O[C@](C)([C@H]3CC[C@@](C)([C@@H]4O[C@@H]([C@H]5O[C@@](O)(CO)[C@H](C)C[C@@H]5C)C[C@@H]4C)O3)C[C@H]2C)[C@@H]1C (some centres not stated)
0.098

Look up MIC for this compound: CO[C@@H]1C[C@@H](C[C@H]2CC[C@H](C)[C@H]([C@@H](C)CCl)O2)OC2(O[C@](C)([C@H]3CC[C@@](C)([C@@H]4O[C@@H]([C@H]5O[C@@](O)(CCl)[C@H](C)C[C@@H]5C)C[C@@H]4C)O3)C[C@H]2C)[C@@H]1C (some centres not stated)
0.098

Look up MIC for this compound: CO[C@@H]1C[C@@H](C[C@H]2CC[C@H](C)[C@H]([C@@H](C)CO)O2)OC2(O[C@](C)([C@H]3CC[C@@](C)([C@@H]4O[C@@H]([C@H]5O[C@@](O)(CO)[C@H](C)C[C@@H]5C)C[C@@H]4C)O3)C[C@H]2C)[C@@H]1C (some centres not stated)
3.13

Now consider the entry below.
Look up MIC for this compound: CO[C@@H]1C[C@@H](C[C@H]2CC[C@H](C)[C@H]([C@@H](C)CO)O2)OC2(O[C@](C)([C@H]3CC[C@@](C)([C@@H]4O[C@@H]([C@H]5O[C@@](O)(COC(=O)C(C)C)[C@H](C)C[C@@H]5C)C[C@@H]4C)O3)C[C@H]2C)[C@@H]1C (some centres not stated)
3.13

###

Tested on: Staphylococcus aureus
Assay: Compound was tested for antimicrobial activity against Staphylococcus aureus 503
recorded endpoint: MIC (µg/mL)
The figure you give is taken to be in µg/mL; do not add the unit.

Use these answered entries as a reference point.
Look up MIC for this molecule: CO[C@@H]1C[C@@H](C[C@H]2CC[C@H](C)[C@H]([C@@H](C)CO)O2)OC2(O[C@](C)([C@H]3CC[C@@](C)([C@@H]4O[C@@H]([C@@H](O)[C@@H](C)C[C@@H](C)CO)C[C@@H]4C)O3)C[C@H]2C)[C@@H]1C (some centres not stated)
1.56

Look up MIC for this molecule: CO[C@@H]1C[C@@H](C[C@H]2CC[C@H](C)[C@H]([C@@H](C)C(=O)O)O2)OC2(O[C@](C)([C@H]3CC[C@@](C)([C@@H]4O[C@@H]([C@H]5O[C@](CO)(OC)[C@H](C)C[C@@H]5C)C[C@@H]4C)O3)C[C@H]2C)[C@@H]1C (some centres not stated)
1.56

Look up MIC for this molecule: CO[C@@H]1C[C@@H](C[C@H]2CC[C@H](C)[C@H]([C@@H](C)C(=O)O)O2)OC2(O[C@](C)([C@H]3CC[C@@](C)([C@@H]4O[C@@H]([C@H]5OC(=O)[C@H](C)C[C@@H]5C)C[C@@H]4C)O3)C[C@H]2C)[C@@H]1C (some centres not stated)
50

Now consider the entry below.
Look up MIC for this molecule: CO[C@@H]1C[C@@H](C[C@H]2CC[C@H](C)[C@H]([C@@H](C)C(=O)O)O2)OC2(O[C@](C)([C@H]3CC[C@@](C)([C@@H]4O[C@@H]([C@H]5O[C@](COC(=O)C(C)C)(OC)[C@H](C)C[C@@H]5C)C[C@@H]4C)O3)C[C@H]2C)[C@@H]1C (some centres not stated)
25

###

System: Staphylococcus aureus
Assay: Compound was tested for antimicrobial activity against Staphylococcus aureus 503
recorded endpoint: MIC

Look up MIC for this compound: CO[C@@H]1C[C@@H](C[C@H]2CC[C@H](C)[C@H]([C@@H](C)C(=O)OCOCC[Si](C)(C)C)O2)OC2(O[C@](C)([C@H]3CC[C@@](C)([C@@H]4O[C@@H]([C@H]5O[C@](COCOCC[Si](C)(C)C)(OCOCC[Si](C)(C)C)[C@H](C)C[C@@H]5C)C[C@@H]4C)O3)C[C@H]2C)[C@@H]1C (stereo partly drawn)
> 100 µg/mL

Look up MIC for this compound: CO[C@@H]1C[C@@H](C[C@H]2CC[C@H](C)[C@H]([C@@H](C)CO)O2)OC2(O[C@](C)([C@H]3CC[C@@](C)([C@@H]4O[C@@H]([C@H]5O[C@](CO)(OC)[C@H](C)C[C@@H]5C)C[C@@H]4C)O3)C[C@H]2C)[C@@H]1C (stereo partly drawn)
> 100 µg/mL

Now consider the entry below.
Look up MIC for this compound: CO[C@@H]1C[C@@H](C[C@H]2CC[C@H](C)[C@H]([C@@H](C)COC(=O)C(C)C)O2)OC2(O[C@](C)([C@H]3CC[C@@](C)([C@@H]4O[C@@H]([C@H]5O[C@@](O)(CO)[C@H](C)C[C@@H]5C)C[C@@H]4C)O3)C[C@H]2C)[C@@H]1C (stereo partly drawn)
> 100 µg/mL
